B1: glmS ribozyme (parent)
chain: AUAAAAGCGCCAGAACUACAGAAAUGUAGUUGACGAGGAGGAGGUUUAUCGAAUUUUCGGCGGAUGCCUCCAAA

- Variants of: B1
- MEASUREMENT_PROTOCOL: kcat; higher = faster cleavage; RNA array
- CONDITION_PARAMETERS: with glucosamine-6-phosphate
Fewer inactive variants are shown than the library holds.
MEASURED_ATTRIBUTE: kcat

{"columns": ["RECORD_SEQUENCE", "RESULT"],
 "data": [
  ["AUAAAAGCGCCAGAACUACAGAAAUGUAAUUGACGAGGAGGAGGUUUAUCGAAAUUUCGGCGGAUGCCUCCAAA [G29A U54A]", "0.00945 s⁻¹"],
  ["AUAAAAGCGCCAGAACUACAGAAAUGUAGUUAACGAGGAGGAGGUUUAUCGAAUUUUCGGCGGAUGCCUCAAAA [G32A C71A]", "0.000628 s⁻¹"],
  ["AUAAAAGCGCCAGAACUACAGAAAUGUAGUUGACGAGGAGGAGGUUUAUCGAAUUUACGGCGGAUGCUUCCAAA [U57A C68U]", "0.00017 s⁻¹"],
  ["AUAAAAGCGCCAGAACUACAGAAAUGUAGUUGUCGAGGAGGAGGUUUAUCGAAGUUUCGGCGGAUGCCUCCAAA [A33U U54G]", "0.000139 s⁻¹"],
  ["AUAAAAGCGCCAGAACUACAGAAAUGUACUUGACGAGGAGGAGGUUUAUCGAAUUUUCGGCGGAUGACUCCAAA [G29C C67A]", "0.000293 s⁻¹"],
  ["AUAAAAGCGCCAGAACUACAGAAAUGUAGUUGACGAGGAGGAGGUUCAUCGAAUUUUCGGCGGAUGUCUCCAAA [U47C C67U]", "0.000295 s⁻¹"],
  ["AUAAAAGCGCCAGAACUACAGAAAUGUAGUUGACGAGGAGGAGGUUUAUCGACUUUUCGGCGGAUGCCUCUAAA [A53C C71U]", "0.00685 s⁻¹"],
  ["AUAAAAGCGCCAGAACUACAGAAAUGUAGUUGACGAGGAGGAGGUUUAUCGAAUUUUGGGCGGAUGCCUCAAAA [C58G C71A]", "3.56e-05 s⁻¹"],
  ["AUAAAAGCGCGAGAACUACAGAAAUGUAGUUGACGAUGAGGAGGUUUAUCGAAUUUUCGGCGGAUGCCUCCAAA [C11G G37U]", "1.74e-05 s⁻¹"],
  ["AUAAAAGCGCCAGAACUACAGAAAUGUAGUUGACGAGGAGGAGGUUUAUCGGAUUUCCGGCGGAUGCCUCCAAA [A52G U57C]", "0.000378 s⁻¹"],
  ["AUAAAAGCGCCAGAACUACAGAAAUGUAGUUGACGAGGAGGAGGUUUAUCGAAUUUUGGGAGGAUGCCUCCAAA [C58G C61A]", "1.85e-05 s⁻¹"],
  ["AUAAAAGCGCCAGAACUACAGAAAUGUAGUUGACGGGGAGGAGGUUUAUCGAAUUUUCGGCGGAUGCCUUCAAA [A36G C70U]", "3.34e-05 s⁻¹"],
  ["AUAAAAGCGCCAGAACUACAGAAAUGUAGCUGACGAGGAGGAGGUUUAUCGAAUUUUAGGCGGAUGCCUCCAAA [U30C C58A]", "2.21e-05 s⁻¹"],
  ["AUAAAAGCGCCUGAACUACAGAAAUGUAGUUGACGAGGAGGAGGUUUAUCGAAUUUUCGGCGGAUGUCUCCAAA [A12U C67U]", "0.0497 s⁻¹"],
  ["AUAAAAGCGCCAGAACUACAGAAAUGUAGUUGAGGAGGAGGAGGUUUAUCGAAUUUUCGGCGUAUGCGUCCAAA [C34G G63U C68G]", "2.21e-05 s⁻¹"],
  ["AUAAAAGCUCCAGGACUACAGAAAUGUAGUUGACGAGGAGGAGGUUUAUCGAAUUUUCGGCGGAUGCCUCCAAA [G9U A14G]", "1.09e-05 s⁻¹"],
  ["AUAAAAGCGCCAGAACUACAGAAAUGUAGUUGACGAGGAGGAAGUUUAUCGAAUUAUCGGCGGAUGCCUCCAAA [G43A U56A]", "1.8e-05 s⁻¹"],
  ["AUAAAAGCGCCAGAACUACAGAAAUGUAGUAGACGAGGAGGGGGUUAAUCGAAUUUUCGGCGGAUGCCUCCAAA [U31A A42G U47A]", "0.00933 s⁻¹"],
  ["AUAAAAGCGCCAGAACUACAGAAAUGUAUGUGACGAGGAGGAGGUUUAUCGAAUUUUCGGCGGAUGCCUCCAAA [G29U U30G]", "0.00393 s⁻¹"],
  ["AUAAAAGCGCCAGAACUACAGAAAUGUAGUUGACGAGGAUGAGGUUUAUCGAAUUUUCGGCGGAUGUCUCCAAA [G40U C67U]", "7.51e-05 s⁻¹"],
  ["AUAAAAGCGCCAGAUCUACAGAAAUGUAGUUGUCGAGGAGGAGGUUUAUCGAAUUUUCGGCGGAUGCCUCCAAA [A15U A33U]", "5.77e-05 s⁻¹"],
  ["AUAAAAGCGCCAGAACUACAGAAAUGUAGUUGACGAGGAGGUGGUUUAUCGAAUUAUCGGCGGAUGCCUCCAAA [A42U U56A]", "0.000109 s⁻¹"],
  ["AUAAAAGCGCCAGAACUACAGAAAUGUAGUUGACGAGGAGGGGGUCUAUCGAAUUUUCGGCGGAUGCCUCCAAA [A42G U46C]", "0.00159 s⁻¹"]
]}
